assayTarget: JAK3 (Homo sapiens, UniProt P52333)
Construct: recombinant purified GST-tagged catalytic domain for each enzyme
Sequence (P52333 822-1111 limits assumed): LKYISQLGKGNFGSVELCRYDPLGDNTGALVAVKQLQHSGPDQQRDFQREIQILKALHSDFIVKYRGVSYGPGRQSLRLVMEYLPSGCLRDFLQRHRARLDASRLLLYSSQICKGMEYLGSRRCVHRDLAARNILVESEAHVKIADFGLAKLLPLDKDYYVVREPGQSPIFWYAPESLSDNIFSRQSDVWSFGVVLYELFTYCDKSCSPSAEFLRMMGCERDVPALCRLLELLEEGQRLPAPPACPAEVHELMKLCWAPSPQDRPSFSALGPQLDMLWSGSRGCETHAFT
testProtocol: Jak Biochemical HTRF Assay (JAK3)
assaySetup: recombinant purified GST-tagged catalytic domain, [ATP] 2.9 μM, values given as range classes
readoutType: IC50

Consider the following illustrative entries.
{"molecule": "Fc1cnc2[nH]cc(-c3nncc(N4CCCC4c4nccs4)n3)c2c1 (stereo not shown) [Example 1-11]", "IC50": "10 to 500 nM"}
{"molecule": "CC(C)=CC(=O)NCc1cnc2[nH]cc(-c3cncc(N[C@H](C(=O)NCC(F)(F)F)C(C)C)c3)c2c1 [Example 10-8]", "IC50": "10 to 500 nM"}
{"molecule": "CC(C)[C@@H](Nc1cncc(-c2c[nH]c3ncc(C(=O)N4CCC(O)CC4)cc23)c1)C(=O)NCC(F)(F)F [Example 3-13]", "IC50": "10 to 500 nM"}

Would you kindly look at the next entry?
# molecule CC(C)C(Nc1cncc(-c2c[nH]c3ncc(C(N)=O)cc23)c1)C(=O)NCC(F)(F)F (stereo not shown) [Example 1-42] ; its IC50 = ≤ 10 nM

meta.source: patent US9096598B2
